# Test details: LD50 in rats (p.o.)
# Recorded conditions: rat, in vivo, po
Assay endpoint: LD50

* CC(C)(CCCCCCCCCCC(C)(C)CC(=O)O)CC(=O)O [Example 4] | > 7000 mg/kg
